The entries below are paired with their reported Ki.
Target: 5-hydroxytryptamine receptor 1A (Rattus norvegicus, UniProt P19327)
Sequence (P19327 whole entry): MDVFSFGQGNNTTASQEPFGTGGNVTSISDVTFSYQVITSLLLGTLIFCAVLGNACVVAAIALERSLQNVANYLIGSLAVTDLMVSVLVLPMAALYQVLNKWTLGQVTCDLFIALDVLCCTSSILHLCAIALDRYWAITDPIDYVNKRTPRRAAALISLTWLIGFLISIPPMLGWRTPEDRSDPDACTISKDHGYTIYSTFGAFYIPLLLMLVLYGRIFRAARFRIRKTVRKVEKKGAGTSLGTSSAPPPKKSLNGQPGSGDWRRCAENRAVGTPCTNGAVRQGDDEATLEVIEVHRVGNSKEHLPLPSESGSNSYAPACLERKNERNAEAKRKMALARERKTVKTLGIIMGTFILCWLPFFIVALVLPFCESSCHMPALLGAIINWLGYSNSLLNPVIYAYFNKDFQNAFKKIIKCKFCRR
quantity_name: Ki (µM)

compound | rel | result_number
COc1cccc(C(=O)N[C@@H]2CC3CC[C@H](C2)N3Cc2ccco2)c1OC (single isomer, unassigned; 14a) | > | 100
COc1cccc(C(=O)N[C@@H]2CC3CC[C@H](C2)N3Cc2cccnc2)c1OC (single isomer, unassigned) | = | 3.3
O=C(N[C@H]1CC2CC[C@H](C1)N2Cc1ccco1)c1ccc(Cl)cc1[N+](=O)[O-] (single isomer, unassigned) | = | 16
COc1ccc(OC)c(C(=O)N[C@H]2CC3CC[C@H](C2)N3Cc2ccco2)c1 (single isomer, unassigned) | = | 9.6
O=C(N[C@H]1CC2CC[C@H](C1)N2Cc1ccco1)c1cccc2ccccc12 (single isomer, unassigned) | = | 7.1
COc1ccc(C(=O)N[C@H]2CC3CC[C@H](C2)N3Cc2ccco2)cc1OC (single isomer, unassigned) | = | 57.3
COc1ccc(F)cc1C(=O)N[C@H]1CC2CC[C@H](C1)N2Cc1ccco1 (single isomer, unassigned) | = | 17.2
COc1ccc(C(=O)N[C@H]2CC3CC[C@H](C2)N3Cc2ccco2)c(OC)c1 (single isomer, unassigned) | = | 19
O=C(N[C@@H]1CC2CC[C@H](C1)N2CC1CCCO1)c1ccc2ccccc2c1 (single isomer, unassigned) | = | 3.3
COc1cccc(C(=O)N[C@@H]2CC3CC[C@H](C2)N3Cc2ccccn2)c1OC (single isomer, unassigned) | = | 1.4
COc1cccc(C(=O)N[C@@H]2CC3CC[C@H](C2)N3Cc2ccncc2)c1OC (single isomer, unassigned) | = | 2.5
COc1cc(Cl)ccc1C(=O)N[C@H]1CC2CC[C@H](C1)N2Cc1ccco1 (single isomer, unassigned) | = | 2.1
O=C(N[C@@H]1CC2CC[C@H](C1)N2Cc1ccccc1)c1ccc2ccccc2c1 (single isomer, unassigned) | = | 0.304
COc1ccc(F)cc1C(=O)N[C@@H]1CC2CC[C@H](C1)N2CC1CCCO1 (single isomer, unassigned) | = | 10.1
COc1cc(C(=O)N[C@H]2CC3CC[C@H](C2)N3Cc2ccco2)cc(OC)c1OC (single isomer, unassigned) | = | 2.9

----------
Molecular target: 5-hydroxytryptamine receptor 1A (Rattus norvegicus, UniProt P19327)
Sequence (P19327 whole entry): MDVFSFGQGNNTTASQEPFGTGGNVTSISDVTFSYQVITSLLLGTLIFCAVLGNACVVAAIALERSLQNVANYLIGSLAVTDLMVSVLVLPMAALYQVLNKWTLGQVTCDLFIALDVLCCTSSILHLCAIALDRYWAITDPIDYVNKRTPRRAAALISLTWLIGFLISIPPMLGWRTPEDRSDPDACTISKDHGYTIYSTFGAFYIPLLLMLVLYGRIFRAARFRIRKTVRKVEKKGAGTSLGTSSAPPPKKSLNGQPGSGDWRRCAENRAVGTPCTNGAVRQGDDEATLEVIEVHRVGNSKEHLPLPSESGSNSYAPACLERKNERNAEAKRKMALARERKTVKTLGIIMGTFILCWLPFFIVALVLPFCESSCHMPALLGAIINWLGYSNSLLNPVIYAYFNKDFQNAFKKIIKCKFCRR
Cut-off 3 µM on Ki: below means y, at or above means n.

molecule | answer_label
COc1cc(OC)cc(C(=O)N[C@H]2CC3CC[C@H](C2)N3Cc2ccco2)c1 (single isomer, unassigned) | n
COc1ccc(Cl)cc1C(=O)N[C@@H]1CC2CC[C@H](C1)N2CC1CCCO1 (single isomer, unassigned) | n
O=C(N[C@@H]1CC2CC[C@H](C1)N2Cc1ccccc1)c1cccc2ccccc12 (single isomer, unassigned) | y
COc1cc(N)c(Cl)cc1C(=O)N[C@@H]1CC2CC[C@H](C1)N2CC1CCCO1 (single isomer, unassigned) | n
O=C(N[C@H]1CC2CC[C@H](C1)N2Cc1ccco1)c1ccc2ccccc2c1 (single isomer, unassigned) | y
COc1cccc(C(=O)N[C@H]2CC3CC[C@H](C2)N3CC2CCCO2)c1 (single isomer, unassigned) | n
O=C(N[C@H]1CC2CC[C@H](C1)N2CC1CCCO1)c1ccccc1 (single isomer, unassigned) | n
COc1ccc(F)cc1C(=O)N[C@H]1C[C@H]2CC[C@@H](C1)N2Cc1ccco1 (stereo in doubt; 14b) | n
COc1ccccc1C(=O)N[C@H]1CC2CC[C@H](C1)N2Cc1ccco1 (single isomer, unassigned) | n
COc1cc(N)c(Cl)cc1C(=O)N[C@H]1CC2CC[C@H](C1)N2Cc1ccco1 (single isomer, unassigned) | y
O=C(N[C@@H]1CC2CC[C@H](C1)N2CC1CCCO1)c1cccc2ccccc12 (single isomer, unassigned) | n
